- method: log P (HPLC/MS data of the preparation examples)
- applied conditions: LC-MS, method [b]: pH 2.7 with 0.1% formic acid in water and acetonitrile, linear gradient 10% to 95% acetonitrile
Exercise: state measured log p for each of the compounds provided.

Task item: Which log p reading was recorded for the compound Cn1ncnc1C(=NOCc1cccc(NC(=O)C(C)(C)C)n1)c1cccs1 [Example 395] ?
Reply: 2.82^[b]

Task item: Which log p reading was recorded for the compound Cn1ccnc1C(=NOCc1cccc(NC(=O)C2CCCCO2)n1)c1ccccc1 (centres unmarked) [Example 338] ?
Reply: 1.93^[b]

Task item: Which log p reading was recorded for the compound Cn1ccnc1C(=NOCc1cccc(NC(=O)Cc2cccs2)n1)c1cccc(F)c1 [Example 290] ?
Reply: 2.44^[b]

Task item: Which log p reading was recorded for the compound CCCCS(=O)(=O)Nc1cccc(CON=C(c2ccc(C)cc2)c2ncnn2C)n1 [Example 74] ?
Reply: 3.04^[b]

Task item: Which log p reading was recorded for the compound CC(C)CC(=O)Nc1nc(CON=C(c2ccccc2)c2ncnn2C)cs1 [Example 96] ?
Reply: 2.88^[b]

Task item: Which log p reading was recorded for the compound Cn1ccnc1C(=NOCc1cccc(NC(=O)CCC2CCCCC2)n1)c1cccc(F)c1 [Example 285] ?
Reply: 3.92^[b]

Task item: Which log p reading was recorded for the compound CC(C)(C)C(=O)Nc1ccnc(CON=C(c2ccsc2)c2snc(Cl)c2Cl)n1 [Example 384] ?
Reply: 4.67^[b]

Task item: Which log p reading was recorded for the compound CC(C)C(=O)Nc1ccnc(CON=C(c2ccccc2)c2cnc(C(=O)C(C)C)n2C)n1 [Example 109] ?
Reply: 3.62^[b]

Task item: Which log p reading was recorded for the compound Cn1cncc1C(=NOCc1cccc(NC(=O)C(C)(C)C)n1)c1ccccc1 (single isomer, unassigned) [Example 126] ?
Reply: 1.85^[b]

Task item: Which log p reading was recorded for the compound Cn1nncc1C(=NOCc1csc(NC(=O)C(C)(C)C)n1)c1ccccc1 [Example 83] ?
Reply: 3.06^[b]

Task item: Which log p reading was recorded for the compound CC(C)C=C(OC(=O)CC(C)C)c1ncc(C(=NOCc2nccc(NC(=O)CC(C)C)n2)c2ccccc2)n1C [Example 103] ?
Reply: 4.04^[b]

Task item: Which log p reading was recorded for the compound CCCCCC(=O)Nc1cccc(CON=C(c2cccc(C)c2)c2ncnn2C)n1 [Example 48] ?
Reply: 3.55^[b]

Task item: Which log p reading was recorded for the compound CCCCCOC(=O)Nc1cccc(CON=C(c2ccccc2)c2ocnc2C)n1 (single isomer, unassigned) [Example 319] ?
Reply: 4.54^[b]

Task item: Which log p reading was recorded for the compound C=CCCC(=O)Nc1cccc(CON=C(c2ccccc2)c2ncnn2C)n1 [Example 310] ?
Reply: 2.77^[b]

Task item: Which log p reading was recorded for the compound CCCCCCOC(=O)Nc1cccc(CON=C(c2ccccc2)c2nc(C)cnc2C)n1 [Example 375] ?
Reply: 5.2^[b]

Task item: Which log p reading was recorded for the compound Cn1ncnc1C(=NOCc1cccc(NC(=O)CCc2ccccc2)n1)c1ccccc1 [Example 107] ?
Reply: 3.33^[b]

Task item: Which log p reading was recorded for the compound CCCCC(=O)Nc1ccnc(CON=C(c2ccccc2)c2nccn2C)n1 [Example 59] ?
Reply: 1.95^[b]

* * *

- method: log P (HPLC/MS data of the preparation examples)
- applied conditions: method [b]: LC-MS at pH 2.7, 0.1% formic acid in water / acetonitrile, linear gradient 10% to 95% acetonitrile
Exercise: state measured log p for each of the compounds provided.

Task item: Which log p reading was recorded for the compound `CCCCC(=O)Nc1cccc(CON=C(c2ccccc2)c2snnc2C)n1` ?
Reply: 4.04^[b]

Task item: Which log p reading was recorded for the compound `Cn1ncnc1C(=NOCc1cccc(NC(=O)Cc2ccccc2Cl)n1)c1ccccc1` ?
Reply: 3.31^[b]

Task item: Which log p reading was recorded for the compound `Cn1nc(C(F)(F)F)nc1C(=NOCc1cccc(NC(=O)CCc2ccccc2)n1)c1ccccc1` ?
Reply: 4.49^[b]

Task item: Which log p reading was recorded for the compound `Cn1nncc1C(=NOCc1csc(N)n1)c1ccccc1` ?
Reply: 1.29^[b]

Task item: Which log p reading was recorded for the compound `Cn1ccnc1C(=NOCc1cccc(N2C(=O)c3ccccc3C2=O)n1)c1cccc(F)c1` ?
Reply: 2.13^[b]

Task item: Which log p reading was recorded for the compound `Cn1ncnc1C(=NOCc1cccc(NC(=O)Cc2cc(F)cc(F)c2)n1)c1ccccc1` ?
Reply: 3.33^[b]

Task item: Which log p reading was recorded for the compound `CCCCCCCCCC(=O)Nc1cccc(CON=C(c2ccccc2)c2cncn2C)n1` ?
Reply: 3.09^[b]

Task item: Which log p reading was recorded for the compound `Cn1ncnc1C(=NOCc1cccc(NC(=O)Cc2cccc(F)c2)n1)c1ccccc1` ?
Reply: 3.15^[b]

Task item: Which log p reading was recorded for the compound `Cn1cnnc1C(=NOCc1cccc(N)n1)c1ccccc1` ?
Reply: 0.88^[b]

Task item: Which log p reading was recorded for the compound `Cn1c(C(=NOCc2cccc(NC(=O)CCc3ccccc3)n2)c2ccccc2)nnc1C(F)(F)F` ?
Reply: 3.85^[b]

Task item: Which log p reading was recorded for the compound `Cn1cnnc1C(=NOCc1cccc(NC(=O)Cc2ccccc2)n1)c1ccccc1` ?
Reply: 2.56^[b]

Task item: Which log p reading was recorded for the compound `CSCCC(=O)Nc1cccc(CON=C(c2ccccc2)c2nnc(C(F)(F)F)n2C)n1` ?
Reply: 3.15^[b]

Task item: Which log p reading was recorded for the compound `COCCC(=O)Nc1cccc(CON=C(c2ccccc2)c2ncnn2C)n1` ?
Reply: 2.17^[b]

Task item: Which log p reading was recorded for the compound `COc1cccc(CC(=O)Nc2cccc(CON=C(c3ccccc3)c3ncnn3C)n2)c1` ?
Reply: 3.06^[b]

Task item: Which log p reading was recorded for the compound Cc1nc(C(=NOCc2cccc(NC(=O)Cc3ccccc3)n2)c2ccccc2)cs1 (single isomer, unassigned) [Example 191] ?
Reply: 3.87^[b]

Task item: Which log p reading was recorded for the compound Cn1ncnc1C(=NOCc1cccc(NC(=O)C2CCCCO2)n1)c1ccccc1 (centres unmarked) ?
Reply: 3.15^[b]

Task item: Which log p reading was recorded for the compound `COCCC(=O)Nc1cccc(CON=C(c2ccccc2)c2nccn2C)n1` ?
Reply: 4.53^[b]

Values were extracted from patent US8981111B2.
